- System: G-clamp-N3 (biotin conjugate)
- PROCEDURE TEXT: pull-down binding Z-score (relative to library population); higher = stronger binding
- REPORTED CONDITIONS: RNA library: Library-1 (pre-miRNA loops + repeats)
The following sequences are listed with their measured pull-down binding Z-score values.
Number, no unit, nothing else.

Study these solved cases before continuing.
- RECORD SEQUENCE: "UCAUAAAUAUUUUAAGGAAUGACCCGGCCCUGGGG [hsa-mir-4285]"
  RESULT: -0.171
- RECORD SEQUENCE: "UGUUAGUGUUCAAGUCUACA [hsa-mir-4802]"
  RESULT: 0.156
- RECORD SEQUENCE: "CUGAGGACUGAGGCUCACCUUG [hsa-mir-6772]"
  RESULT: 0.0792

stdin: Which pull-down binding Z-score is listed for UGAAGCCCCGAGAUGCCUCACGUCUUCA [hsa-mir-6802] ?
stdout: -1.85

stdin: Returns the measured pull-down binding Z-score for the input sequence. Input: UAGGUUGUUAUUUAAUCCAACU [hsa-mir-190a]
stdout: -1

Cited source: the supplement of paper PMC11865577
